Target: T1, huCD46-His (human, UniProt P15529 35-343)
T1 construct: extracellular domain; Immobilised by amine coupling on the SPR chip; It may be the same protein as the ELISA antigen; also called Human CD46-His; human CD46; not shown: His tag
T1 sequence (looked up): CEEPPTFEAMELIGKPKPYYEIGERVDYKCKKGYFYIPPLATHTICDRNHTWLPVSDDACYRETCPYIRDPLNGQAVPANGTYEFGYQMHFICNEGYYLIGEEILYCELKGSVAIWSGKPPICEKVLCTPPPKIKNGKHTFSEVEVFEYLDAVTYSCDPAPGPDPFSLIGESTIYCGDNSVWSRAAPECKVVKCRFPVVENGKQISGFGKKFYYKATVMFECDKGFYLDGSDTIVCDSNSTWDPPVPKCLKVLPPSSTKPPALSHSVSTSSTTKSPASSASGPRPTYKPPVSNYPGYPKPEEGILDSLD
Experiment: SPR, huCD46-His immobilised, antibody as analyte, pH 6.5

- binder: "Benchmark (BM) BA-133-00-01 (antibody, V domains shown, the killing assays used the ADC form; Conjugation site and payload are not described; also called BM (bench mark)) VH: QVQLQESGPGLVKPSETLSLTCTVSGGSVSSYDISWIRQPPGKGLEWIGVIWTDGGTNYNSAFMSRVTISVDTSKNQFSLKLSSVTAADTAVYYCARVYDGYPWFAYWGQGTLVTVSS VL: DIQMTQSPSSLSASVGDRVTITCRASQGISNYLNWYQQKPGKAPKLLIYYTSSLHSGVPSRFSGSGSGTDFTLTISSLQPEDFATYYCQQYIKLPWTFGGGTKLEIKR"
  scale-unit: "M⁻¹ s⁻¹"
  kon: 621000
- binder: "BA-133-04-02 (antibody, V domains shown, also called CPE hit BA133-04-02) VH: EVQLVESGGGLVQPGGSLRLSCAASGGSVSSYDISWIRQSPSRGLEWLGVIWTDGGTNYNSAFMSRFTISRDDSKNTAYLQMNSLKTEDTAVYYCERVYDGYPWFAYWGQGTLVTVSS VL: AIQLTQSPSSLSASVGDRVTITCRASQGIANYLNWYLQKPGQSPQLLIYYTSSLHSGVPDRFSGSGSGTDFTLKISRVEAEDVGVYYCQQYIKLPWTFGQGTKVEIK"
  scale-unit: "M⁻¹ s⁻¹"
  kon: 547000
- binder: "BAP133-2-02-12 (antibody, V domains shown, also called BAP133-02-02-12; CPE hit BAP133-2-02-12) VH: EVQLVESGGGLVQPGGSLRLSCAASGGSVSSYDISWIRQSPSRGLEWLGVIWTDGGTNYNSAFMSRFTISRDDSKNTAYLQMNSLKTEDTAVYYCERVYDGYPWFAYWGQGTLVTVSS VL: AIQLTQSPSSLSASVGDRVTITCRALQGISNYLNWYQQKPGKAPKLLIYYTSSLHSGVPSRFSGSGSGTEFTLTISSLQPDDFATYYCQQYIKLPWTFGQGTKVEIK"
  scale-unit: "M⁻¹ s⁻¹"
  kon: 488000

// data source = patent US20230242662A1
